# measured-target: human MASP-2 catalytic fragment (Homo sapiens, UniProt O00187)
# Construct: catalytic enzyme fragments containing the three C-terminal domains: CCP1-CCP2-SP; made in house
# assay-procedure: Surface plasmon resonance kinetics and affinity on immobilized human MASP-2 catalytic fragment
# Type: binding
Bridges are numbered along the chain shown (N, C = ends). Where no end group is shown, it is not given here.
observable: Kd (nM)

KPDFCFLENDPGLCRAAAVRYFYNNQTKQCERFYYGGCLGNMNNFVTLEECKNICEDG (disulfide 5-55, 14-38, 30-51) [EVO222]: 0.045
